Data origin: patent US9518022B2

Experiment notes: Cytotoxicity assay (AlamarBlue) in mock infected MT-2 cells
Format: cell-based
Condition label: human
Value type: CC50 at 96 h (µM)

1) COc1ccc(/C=C/C2NCCc3cc(OCc4ccccc4)c(OC)cc32)c(OC)c1 (centres unmarked): 5.5
2) COc1cc2c(cc1OCc1ccccc1)CCNC2/C=C/c1cccc(C(=O)O)c1 (centres unmarked): 10
3) COc1cc2c(cc1OCc1ccccc1)CCNC2/C=C/c1ccccc1C(F)(F)F (centres unmarked): 10
4) COc1cc2c(cc1OCc1ccccc1)CCNC2/C=C/c1cccc(-c2ncco2)c1 (centres unmarked): 7.5
